# Tested system: Beta-3 adrenergic receptor (Homo sapiens, UniProt P13945)
# Sequence (P13945 whole entry): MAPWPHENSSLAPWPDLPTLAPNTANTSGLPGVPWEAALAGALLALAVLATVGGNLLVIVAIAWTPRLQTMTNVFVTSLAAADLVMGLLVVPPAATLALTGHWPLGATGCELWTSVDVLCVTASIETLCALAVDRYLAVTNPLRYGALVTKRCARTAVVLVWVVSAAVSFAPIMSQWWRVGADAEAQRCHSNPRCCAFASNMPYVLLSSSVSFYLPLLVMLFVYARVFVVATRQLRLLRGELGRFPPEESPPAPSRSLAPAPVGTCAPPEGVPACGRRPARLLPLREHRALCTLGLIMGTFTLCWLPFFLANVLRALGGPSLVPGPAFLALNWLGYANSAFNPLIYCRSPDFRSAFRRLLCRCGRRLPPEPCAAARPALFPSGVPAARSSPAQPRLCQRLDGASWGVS
# Measurement notes: Agonist activity at human recombinant beta3 adrenergic receptor expressed in CHO cells assessed as cAMP accumulation by enzyme immuno assay
Listed below: log10(EC50) values for each entry.
Heads up, the numbers here are log10 of EC50 in nM units.

# annotated cases, reported log10(EC50) shown
Mol: CC(C)Oc1cc(-c2ccc(C[C@@H](C)NC[C@H](O)c3ccccc3)cc2)ccc1C(=O)O
Tested system: Beta-3 adrenergic receptor (Homo sapiens, UniProt P13945)
Test result: -1.04
//
Mol: CC(C)Oc1cc(-c2ccc(CCNC[C@H](O)c3cccc(NS(C)(=O)=O)c3)cc2)ccc1C(=O)O
Tested system: Beta-3 adrenergic receptor (Homo sapiens, UniProt P13945)
Test result: 1.48
//
Mol: Nc1ccc([C@@H](O)CNCCc2ccc(-c3ccc(C(=O)O)c(OC4CCCCC4)c3)cc2)cn1
Tested system: Beta-3 adrenergic receptor (Homo sapiens, UniProt P13945)
Test result: -1.46
//
Mol: CC(C)Oc1cc(-c2ccc(OCCNC[C@H](O)c3ccccc3)cc2)ccc1C(=O)O
Tested system: Beta-3 adrenergic receptor (Homo sapiens, UniProt P13945)
Test result: 0.38
//
Mol: CC(C)Oc1cc(-c2ccc(CCNC[C@H](O)c3ccc(O)c(NS(C)(=O)=O)c3)cc2)ccc1C(=O)O
Tested system: Beta-3 adrenergic receptor (Homo sapiens, UniProt P13945)
Test result: -0.59

Asked: Please look up its log10(EC50): CC(C)Cc1cc(-c2ccc(OCCNC[C@H](O)c3cccc(Cl)c3)cc2)ccc1C(=O)O
Given back: -0.17

Asked: // repeat for CC(C)Oc1cc(-c2ccc(CCN[C@@H](C)[C@H](O)c3ccccc3)cc2)ccc1C(=O)O and report
Given back: -0.09

Asked: // repeat for CCOc1cc(-c2ccc(C[C@@H](C)NC[C@H](O)c3ccccc3)cc2)ccc1C(=O)O and report
Given back: -0.51

Asked: // repeat for C[C@H](Cc1ccc(-c2ccc(C(=O)O)cc2)cc1)NC[C@H](O)c1cccc(Cl)c1 and report
Given back: -0.74

Asked: // repeat for CCCOc1cc(-c2ccc(CCCNC[C@H](O)c3cccc(Cl)c3)cc2)ccc1C(=O)O and report
Given back: -0.15

Asked: // repeat for CC(C)COc1cc(-c2ccc(C[C@@H](C)NC[C@H](O)c3ccccc3)cc2)ccc1C(=O)O and report
Given back: -1.39

Asked: // repeat for CC(C)Oc1cc(-c2ccc(CCNC[C@H](O)c3cccc(N)c3)cc2)ccc1C(=O)O and report
Given back: 0.91

Asked: // repeat for C[C@H](Cc1ccc(-c2ccc(C(=O)O)c(OC3CCCCC3)c2)cc1)NC[C@H](O)c1ccccc1 and report
Given back: -1.38

Asked: // repeat for O=C(O)c1ccc(-c2ccc(CCNC[C@H](O)c3cccnc3)cc2)cc1OC1CCCCC1 and report
Given back: -0.59

Asked: // repeat for CC(C)Oc1cc(-c2ccc(CCNC[C@H](O)c3ccc(N)nc3)cc2)ccc1C(=O)O and report
Given back: -0.72

Asked: // repeat for CC(C)Oc1cc(-c2ccc(CC(C)(C)NC[C@H](O)c3ccccc3)cc2)ccc1C(=O)O and report
Given back: -0.04

Asked: // repeat for CC(C)Oc1cc(-c2ccc(CCNC[C@H](O)c3cccc(F)c3)cc2)ccc1C(=O)O and report
Given back: 0.32

Asked: // repeat for CC(C)Oc1cc(-c2ccc(CCNC[C@H](O)c3cccnc3)cc2)ccc1C(=O)O and report
Given back: 0.18

---

# Measurement notes: Bioavailability in rat at 1.0 mg/kg, po by cassette assay
# Type: ADME, organism-based
# Condition info: in vivo
Observation type: bioavailability
Reply with the number, then its unit.

Asked: Please look up its bioavailability: CC(C)Oc1cc(-c2ccc(C[C@@H](C)NC[C@H](O)c3ccccc3)cc2)ccc1C(=O)O
Given back: 69.7%

---

# Measurement notes: AUC (0 to 24 hrs) in monkey at 0.30 mg/kg, po by cassette assay
# Format: ADME, organism-based, Macaca mulatta
# Set-up: time < 24 hr, dose 0.3 mg/kg, route oral
# Condition info: rhesus monkey, plasma, 0.3 mg/kg
Observation type: AUC(0-t) at 24 h (ng·h/mL)
Entry rule: numbers only, all in ng·h/mL.

Asked: Please look up its AUC(0-t) at 24 h: CCCOc1cc(-c2ccc(C[C@@H](C)NC[C@H](O)c3cccnc3)cc2)ccc1C(=O)O
Given back: 65.2

---

Listed below: clearance values for each entry.
# Measurement notes: Total clearance in dog at 0.1 mg/kg, iv
# Format: ADME, organism-based, Canis lupus familiaris
# Design: dose 0.1 mg/kg, route intravenous
# Condition info: in vivo
Entry rule: numbers only, all in mL/min/kg.

# annotated cases, reported clearance shown
Mol: CC(C)Oc1cc(-c2ccc(C[C@@H](C)NC[C@H](O)c3ccccc3)cc2)ccc1C(=O)O
Unit abbrev: mL/min/kg
clearance: 7.83
--
Mol: CC(C)Oc1cc(-c2ccc(CCN[C@@H](C)[C@H](O)c3ccccc3)cc2)ccc1C(=O)O
Unit abbrev: mL/min/kg
clearance: 7.3
--
Mol: C[C@H](Cc1ccc(-c2ccc(C(=O)O)cc2)cc1)NC[C@H](O)c1cccnc1
Unit abbrev: mL/min/kg
clearance: 4.4

Please look at the following molecule next.
Asked: Please look up its clearance: CCCOc1cc(-c2ccc(C[C@@H](C)NC[C@H](O)c3cccnc3)cc2)ccc1C(=O)O
Given back: 24.3

---

# Measurement notes: AUC (0 to 24 hrs) in Beagle dog at 0.1 mg/kg, iv by cassette assay
# Type: ADME, organism-based, Canis lupus familiaris
# Design: time < 24 hr, dose 0.1 mg/kg, route intravenous
# Condition info: plasma
Observation type: AUC(0-t) at 24 h (ng·h/mL)
Entry rule: numbers only, all in ng·h/mL.

Asked: Please look up its AUC(0-t) at 24 h: CCOc1cc(-c2ccc(C[C@@H](C)NC[C@H](O)c3ccccc3)cc2)ccc1C(=O)O
Given back: 477

Asked: // repeat for CC(C)Oc1cc(-c2ccc(C[C@@H](C)NC[C@H](O)c3ccccc3)cc2)ccc1C(=O)O and report
Given back: 260

Asked: // repeat for C[C@H](Cc1ccc(-c2ccc(C(=O)O)c(OC3CCCCC3)c2)cc1)NC[C@H](O)c1ccccc1 and report
Given back: 24.3

Asked: // repeat for CC(C)COc1cc(-c2ccc(C[C@@H](C)NC[C@H](O)c3ccccc3)cc2)ccc1C(=O)O and report
Given back: 44.5

---

# Measurement notes: AUC (0 to 24 hrs) in monkey at 0.27 mg/kg, po by cassette assay
# Format: ADME, organism-based, Macaca mulatta
# Set-up: time < 24 hr, dose 0.27 mg/kg, route oral
# Condition info: rhesus monkey, plasma
Observation type: AUC(0-t) at 24 h (ng·h/mL)
Entry rule: numbers only, all in ng·h/mL.

Asked: Please look up its AUC(0-t) at 24 h: CC(C)Oc1cc(-c2ccc(CCNC[C@H](O)c3cccnc3)cc2)ccc1C(=O)O
Given back: 77.5

---

Listed below: clearance values for each entry.
# Measurement notes: Total clearance in rat at 1.0 mg/kg, iv
# Type: ADME, organism-based
# Parameters: dose 1 mg/kg, route intravenous
# Condition info: in vivo
Entry rule: numbers only, all in mL/min/kg.

Asked: Please look up its clearance: C[C@H](Cc1ccc(-c2ccc(C(=O)O)cc2)cc1)NC[C@H](O)c1cccnc1
Given back: 34.3

Asked: // repeat for CC(C)Oc1cc(-c2ccc(CCNC[C@H](O)c3cccnc3)cc2)ccc1C(=O)O and report
Given back: 16

Asked: // repeat for CC(C)Cc1cc(-c2ccc(CCNC[C@H](O)c3ccc(N)nc3)cc2)ccc1C(=O)O and report
Given back: 8.5

---

# Measurement notes: Metabolic stability assessed as intrinsic clearance in monkey liver microsome in presence of NADPH-generating system
# Assay type: ADME, Macaca mulatta
# Condition info: rhesus monkey, liver microsomes
Listed below: CLint scaled values for each entry.

Mol: CC(C)Oc1cc(-c2ccc(C[C@@H](C)NC[C@H](O)c3ccccc3)cc2)ccc1C(=O)O
Test result: < 1 mL/min/kg

Asked: Please look up its CLint scaled: CC(C)Cc1cc(-c2ccc(CCNC[C@H](O)c3ccc(N)nc3)cc2)ccc1C(=O)O
Given back: 3.8 mL/min/kg

---

# Measurement notes: AUC (0 to 24 hrs) in rat at 0.34 mg/kg, po by cassette assay
# Format: ADME, organism-based
# Parameters: time < 24 hr, dose 0.34 mg/kg, route oral
# Condition info: plasma
Observation type: AUC(0-t) at 24 h
Reply with the number, then its unit.

Asked: Please look up its AUC(0-t) at 24 h: CC(C)Oc1cc(-c2ccc(CCN[C@@H](C)[C@H](O)c3ccccc3)cc2)ccc1C(=O)O
Given back: 0.88 µg·h/mL

---

# Measurement notes: Total clearance in monkey at 0.28 mg/kg, iv by cassette assay
# Type: ADME, organism-based, Macaca mulatta
# Design: dose 0.28 mg/kg, route intravenous
# Condition info: rhesus monkey, in vivo
Observation type: clearance (mL/min/kg)
Entry rule: numbers only, all in mL/min/kg.

Asked: Please look up its clearance: O=C(O)c1ccc(-c2ccc(CCNC[C@H](O)c3cccnc3)cc2)cc1OC1CCCCC1
Given back: 3.4
